Molecular target: HIV-1 IN-IN subunit exchange (Human immunodeficiency virus type 1 group M subtype B, UniProt P04585)
Construct: Full-length IN and LEDGF proteins were expressed in E. coli BL21(DE3)
Experiment: HTRF-based IN subunit exchange assay (IN-IN dimerization)
Details: concentration required to inhibit the HIV-1 IN-IN subunit exchange by 50%; HTRF, His- and FLAG-tagged IN
pIC50: −log10 of the molar value.
measured.endpoint: pIC50

I'd like to know its pIC50. The compound in question is CCCC(C(=O)O)c1c(C)nc2ccc(Cl)cc2c1-c1ccccc1 (stereo not shown) [LEDGIN-6, reference compound]
< 4.00

###

Molecular target: HIV-1 IN multimerization (Human immunodeficiency virus type 1 group M subtype B, UniProt P04585)
Construct: Full-length IN and LEDGF proteins were expressed in E. coli BL21(DE3)
Experiment: HTRF-based IN multimerization assay
Conditions: concentration stimulating the Multimerization Increase by 50%; HTRF; read-out: IN-multim MI50
measured.endpoint: pEC50
Recall that pEC50 is obtained by taking minus log10 of the concentration measured in molar.

pEC50 for CCCC(C(=O)O)c1c(C)nc2ccc(Cl)cc2c1-c1ccccc1 (stereo not shown) [LEDGIN-6, reference compound] ?
5.00
